experiment: Photophysical property characterization (absorption/emission spectra, quantum yield); format: physicochemical; conditions: MeCN
Documented log10ε experimental across a set of molecules
Hey, just send me the number, nothing else.

Examples from the recorded data:
COc1cc(OCc2ccccn2)ccc1/C=C/c1cc(/C=C/c2ccc3cc[nH]c3c2)[nH]n1	4.9675
Cc1ccc(Cl)cc1NC(=O)c1cc2c(=O)n3cccc(C)c3nc2n1C	4.2923
COC1=CC(c2cc3ccccc3[nH]2)=N/C1=C\c1[nH]c(C)cc1C	4.5902

Would you kindly look at the next entry?
Data request: Endpoint output: log10ε experimental of COc1cc(OCc2ccccn2)ccc1/C=C/C1=[O+][B-](F)(F)OC(/C=C/c2ccc3cc[nH]c3c2)=C1 . Value?
Data returned: 4.9784
